Data credit: PubChem BioAssay (NCATS)

experimental_details: Quantitative High-Throughput drug screen in 47 multiple myeloma cell lines against the NCATS MIPE library collection: OPM1_PLB cell viability assay (AID 1918989); also: nearly all actives have a fitted effect of over 40% in size
settings: CellTiter-Glo, 48 h; series mostly up to 45.8 µM
Results filed as inconclusive are left out. Activity calls are given as the source filed them. Calls follow the shape of the dose curve; as a rule, active = well fitted cell-killing curve with a large enough effect; inconclusive = small, poorly fitted or top-dose-only effect, or effect the other way; inactive = no such curve, though single readings can be large or run the other way.
Please answer using one outcome listed in active, inactive

So what was the verdict on CCC(=C(c1ccccc1)c1ccc(OCCN(C)C)cc1)c1ccccc1 in this test? active

Next:
So what was the verdict on O=C(C=Cc1cccnc1)NCCCCC1CCN(C(=O)c2ccccc2)CC1 in this test? active

So what was the verdict on CNC(=O)c1ccc(N2C(=S)N(c3cnc(C#N)c(C(F)(F)F)c3)C(=O)C23CCC3)cc1F in this test? active
